Let's look at some substances and their measured EC50.
target: PACAP-R2 (Homo sapiens); construct: expressed in transfected cells; host or cells: CHO cells; test: Cyclic AMP SPA on CHO cells transfected with PACAP-R2; assay type: cell-based; details: cAMP SPA, concentration at which 50% of maximum PACAP27 activity is achieved, NA = no detectable activities, read-out: R2 EC50
Sequence (P32241 31-457, species assumed): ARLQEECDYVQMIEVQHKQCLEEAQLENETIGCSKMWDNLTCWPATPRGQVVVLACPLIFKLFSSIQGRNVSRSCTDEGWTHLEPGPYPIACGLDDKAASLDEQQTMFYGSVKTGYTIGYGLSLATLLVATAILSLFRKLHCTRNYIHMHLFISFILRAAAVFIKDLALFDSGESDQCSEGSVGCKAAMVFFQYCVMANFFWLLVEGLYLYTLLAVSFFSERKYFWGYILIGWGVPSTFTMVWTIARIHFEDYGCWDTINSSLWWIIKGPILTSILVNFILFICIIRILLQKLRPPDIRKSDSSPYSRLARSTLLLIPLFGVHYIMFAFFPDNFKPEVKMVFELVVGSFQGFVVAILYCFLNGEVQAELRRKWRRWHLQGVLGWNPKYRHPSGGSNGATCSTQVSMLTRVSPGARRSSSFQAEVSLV
No end group written: not given here.
Give a bare numeral; the unit µM is implied.

HSDAVFTDNYTRLRKQMAAKKYLNSIKNKT [Peptide R3P168] :: 0.06
HSDAVFTDQYTRLRKQMAAKKYLNSIKNKRY [Peptide R3P71] :: 0.056
H-HSDAVFTDNYTRLRKQMAGKKYLNSIRNRI [rR3P190] :: 0.22

Notebook: HSDAVFTDNYTRLRKQVAAKKYLNSIKNKRY [Peptide R3P79] , EC50 read as 0.1

Lab book: EC50 of HSDAVFTDNYTRLRKQMAAKKYLNSIKNKF [Peptide R3P157] noted as 0.05
